Molecular target: Zap1 (UniProt P47043)
Sequence: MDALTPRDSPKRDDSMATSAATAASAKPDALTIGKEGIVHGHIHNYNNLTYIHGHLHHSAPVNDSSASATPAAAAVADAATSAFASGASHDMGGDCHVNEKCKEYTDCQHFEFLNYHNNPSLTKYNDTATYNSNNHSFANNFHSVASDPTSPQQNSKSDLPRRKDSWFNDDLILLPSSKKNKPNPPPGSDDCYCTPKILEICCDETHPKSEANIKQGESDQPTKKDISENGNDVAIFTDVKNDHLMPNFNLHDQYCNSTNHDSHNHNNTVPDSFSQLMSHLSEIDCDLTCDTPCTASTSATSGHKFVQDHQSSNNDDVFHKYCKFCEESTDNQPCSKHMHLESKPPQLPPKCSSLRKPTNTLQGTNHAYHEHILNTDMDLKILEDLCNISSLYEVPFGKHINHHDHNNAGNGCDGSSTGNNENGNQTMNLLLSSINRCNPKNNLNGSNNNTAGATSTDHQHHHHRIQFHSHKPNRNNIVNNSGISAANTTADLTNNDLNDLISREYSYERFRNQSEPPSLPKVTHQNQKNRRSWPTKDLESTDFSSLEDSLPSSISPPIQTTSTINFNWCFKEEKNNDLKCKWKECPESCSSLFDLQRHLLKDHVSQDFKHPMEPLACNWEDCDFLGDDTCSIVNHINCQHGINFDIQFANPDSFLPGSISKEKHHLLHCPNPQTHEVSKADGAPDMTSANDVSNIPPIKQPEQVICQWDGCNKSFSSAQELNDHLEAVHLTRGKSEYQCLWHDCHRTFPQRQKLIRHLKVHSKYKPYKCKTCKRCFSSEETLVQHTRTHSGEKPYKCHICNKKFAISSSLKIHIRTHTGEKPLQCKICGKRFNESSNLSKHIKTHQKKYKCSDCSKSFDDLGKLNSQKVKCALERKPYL
Assay: PBM E-score (8-mer binding enrichment) (E-score (-0.5 to 0.5)); higher = stronger / more preferred TF binding
Settings: protein concentration: 200 nM; construct: GST-full length
The full ranking holds about 33,000 sequences; the median of “E-score (-0.5 to 0.5)” is about -0.021, and the highest 2% start at about 0.32. Many of the other results were omitted from the sample, so the highest values are more common in it than they were.
Measured PBM E-score, listed per entry.
Format: numeric value only, no unit, no commentary.

[
  {
    "residues": "TCAAAAAA",
    "test-value": 0.202
  },
  {
    "residues": "CTACCCCA",
    "test-value": 0.139
  },
  {
    "residues": "CGTTACAC",
    "test-value": 0.0157
  },
  {
    "residues": "CGTTACAA",
    "test-value": 0.121
  },
  {
    "residues": "ACAAACCG",
    "test-value": 0.027
  },
  {
    "residues": "ACAACCCT",
    "test-value": 0.443
  },
  {
    "residues": "ACAACCCA",
    "test-value": 0.286
  },
  {
    "residues": "ACGACCCT",
    "test-value": 0.348
  },
  {
    "residues": "AGTGTCGA",
    "test-value": 0.127
  },
  {
    "residues": "GGTTACAA",
    "test-value": 0.455
  }
]

Request: Input CAGTGACG , output reported PBM E-score.
Response: -0.0109

Request: Input GTACCCAA , output reported PBM E-score.
Response: 0.234

Request: Input GAGCTATA , output reported PBM E-score.
Response: -0.233
